Reported values: k7, rate constant for peptidase-dependent degradation of di-ubiquitinated substrate for endogenous proteases and peptidases found in the S100 lysates, one per item.

Use these answered entries as a reference point.
KAWQQQSYLDSGIHSGATTTAPK(FAM)KKK [β-Catenin]	0.1 (1/min)*10^3
KKYSSQTSQDSGNYSNK(FAM)KKK [IFNAR1]	0.01 (1/min)*10^3
KPFLNGGPYHSREQSTDSGLGLGSYK(FAM)KKK [TAZ]	0.1 (1/min)*10^3
K-(PEG)-KEEKDINNNVKKTK(FAM)KKK [iNOS]	0.01 (1/min)*10^3
K-(PEG)-DVQKADVSSTGQGIDSK(FAM)KKK [SRC3]	0.01 (1/min)*10^3

Now turn to the next substance.
Give recorded k7, rate constant for peptidase-dependent degradation of di-ubiquitinated substrate with endogenous proteases and peptidases found in the S100 lysates for the following substance: KAAEEEEVSLASTPTDVRDVDIK(FAM)KKK [Cyclin D1]
0.01 (1/min)*10^3
